test system: NCI-H460 lung; assay: NCI tumour cell line growth inhibition, 48 h
Entry flag: true if TGI reaches 20 µM; false if it does not.

Clc1ccc(N2CCN(CCCN3CCN(c4cccc(Cl)c4)CC3)CC2)cc1 :: false

# ---- query compound ----
Query: Does "O=c1c2c([nH]c3cc4c(cc13)OCO4)-c1ccccc1C2" have a reported TGI of at least 20 µM?
Reply: true

###

tested on: SK-MEL-28 melanoma; test: NCI tumour cell line growth inhibition, 48 h
Listing: TGI of selected molecules

Record excerpt, results attached:
O=C1/C(=C/c2ccc(O)c(O)c2)COc2ccc(-c3ccccc3)cc21 :: 3.07 µM
CCCCCCCCCCCC(=O)c1c(O)cc(C)oc1=O :: > 100 µM
CC(=O)CC(=O)Nc1c(C)[c]([Hg][O]C(C)=O)c(C)[c]([Hg][O]C(C)=O)[c]1[Hg][O]C(C)=O :: 26.3 µM
CN1C(=O)/C(=C/c2c(Cl)[nH]c3ccccc23)c2ccccc21 :: > 100 µM
C/C=C(\C)C(=O)O[C@H]1C=CC(=O)O[C@H]1CC[C@H](O)[C@H](C)O :: 8.05 µM

Query: Return reported TGI; argument: "COc1ccc2c(-c3ccc(OCCN(C)C)cc3)c(Oc3ccccc3)c(=O)oc2c1"
Reply: 5.53 µM

Query: Return reported TGI; argument: "CC1=CC(=O)C(=C(C)C)CC1"
Reply: > 100 µM

Query: Return reported TGI; argument: "N#Cc1c(N)nc(NCc2ccccc2)c(C#N)c1-c1ccc(Cl)cc1"
Reply: > 100 µM

Query: Return reported TGI; argument: "O=C1/C(=C/c2cccc([N+](=O)[O-])c2)N=C(c2ccccc2)N1c1nc2c(Cl)cc(Cl)cc2s1"
Reply: > 100 µM

Query: Return reported TGI; argument: "CC(C)OC(=O)c1ccc(CCc2cc(O)c(Br)cc2O)cc1"
Reply: 26.9 µM

###

tested on: OVCAR-5 ovarian; experiment: NCI tumour cell line growth inhibition, 48 h
Property measured: GI50

Record excerpt, results attached:
Clc1ccc(N2CCN(CCCN3CCN(c4cccc(Cl)c4)CC3)CC2)cc1 :: 9.12 µM
O=C(O[C@H]1CN[C@H](C#Cc2cc3ncnc(Nc4ccc5c(cnn5Cc5ccccc5)c4)c3s2)C1)N1CCOCC1 :: 1.64 µM
COc1cc(-c2cc(/C=C/C(=O)c3ccc(N)cc3)[nH]n2)cc(OC)c1OC :: 1.78 µM
NCCCCCCn1c2c(c3ccccc3c1=O)C(=O)c1ccccc1-2 :: 1.88 µM
Cc1ccc(S(=O)(=O)NC2=NCCN2C(=S)SN2CCn3c2nsc3=S)cc1 :: 20.1 µM

Query: Return reported GI50; argument: "Cc1ccc(-c2cc3c(NC(=O)C4CC4)ncnc3o2)cc1"
Reply: > 25 µM

Query: Return reported GI50; argument: CCOC(=O)C1=C(N)CCC1C (stereo unspecified)
Reply: > 100 µM

Query: Return reported GI50; argument: "CCOC(=O)c1ccc2[nH]c(O)c(C(=Nc3ccc(N(C)C(=O)CN4CCN(C)CC4)cc3)c3ccccc3)c2c1"
Reply: 1.35 µM

Query: Return reported GI50; argument: CSCCC(NC(=O)CNC(=O)C(CC(=O)O)NC(=O)C(NC(=O)C(NC(=O)C(NC(=O)CNC(=O)C(CCC(N)=O)NC(=O)C(CCSC)NC(=O)C(CC(=O)O)NC(=O)C(C)NC(=O)C(C)NC(=O)C(NC(=O)C(CO)NC(=O)C(N)CC(C)C)C(C)O)C(C)C)C(C)C)C(C)O)C(=O)NC(C)C(=O)NC(CO)C(=O)NCC(=O)NC(CC(C)C)C(=O)NC(CC(=O)O)C(=O)NC(CCCCN)C(=O)NC(CC(=O)O)C(=O)NC(Cc1ccc(O)cc1)C(=O)NC(CC(C)C)C(=O)NC(CCCCN)C(=O)N1CCCC1C(=O)NC(CC(=O)O)C(=O)NC(CC(=O)O)C(=O)O (stereo unspecified)
Reply: > 82.5 µM

Query: Return reported GI50; argument: "Oc1ccccc1N=Cc1c(O)ccc2ccccc12"
Reply: 24.6 µM

Query: Return reported GI50; argument: "CCCN1C(=O)/C(=C/c2cccc(O)c2)SC1=Nc1ccc(OC)cc1"
Reply: 7.94 µM

Query: Return reported GI50; argument: "CCOc1ccc2nc(S/C(=C/C=C(C#N)C#N)c3ccc(Cl)cc3)sc2c1"
Reply: 15.2 µM
